Some compounds, each annotated with its measured pIC50.
system: SH-SY5Y; test: Cytotoxicity against human SH-SY5Y cells assessed as inhibition of cell growth measured after 24 hrs by MTT assay; type: functional, cell-based
pIC50: −log10 of the molar value.

structureSmilesString	pIC50
Nc1nonc1-c1nc2ccccc2n1CC(=O)Nc1cc([N+](=O)[O-])cc([N+](=O)[O-])c1	4.14
Nc1nonc1-c1nc2ccccc2n1CC(=O)Nc1cc([N+](=O)[O-])cc(C(F)(F)F)c1	4.81
Nc1nonc1-c1nc2ccccc2n1CC(=O)Nc1cc(Cl)cc(C(F)(F)F)c1	4.98
COC(=O)c1cc(NC(=O)Cn2c(-c3nonc3N)nc3ccccc32)cc(C(=O)OC)c1	4.24
Cc1cc(NC(=O)Cn2c(-c3nonc3N)nc3ccccc32)cc([N+](=O)[O-])c1	4.23
Nc1nonc1-c1nc2ccccc2n1CC(=O)Nc1ccc([N+](=O)[O-])c(Cl)c1	4.60
Cc1cc(C)cc(NC(=O)Cn2c(-c3nonc3N)nc3ccccc32)c1	5.12

====

experiment: Tmax in Sprague-Dawley rat at 10 mg/kg, iv measured upto 1440 mins by LC/MS/MS analysis; assay type: ADME, organism-based; conditions: in vivo

structureSmilesString	Tmax
Nc1nonc1-c1nc2ccccc2n1CC(=O)Nc1cnc2ccccc2c1	1 min

====

system: PC-12; assay: Cytotoxicity against rat PC12 cells assessed as inhibition of cell growth measured after 24 hrs by MTT assay; assay type: functional, cell-based; settings: PC-12, 24 h

structureSmilesString	IC50, µM
Nc1nonc1-c1nc2ccccc2n1CC(=O)Nc1ccc([N+](=O)[O-])c(Cl)c1	27.8
Nc1nonc1-c1nc2ccccc2n1CC(=O)Nc1cc([N+](=O)[O-])cc(C(F)(F)F)c1	18.1
Nc1nonc1-c1nc2ccccc2n1CC(=O)Nc1cc(Br)cc(C(F)(F)F)c1	11.4
Nc1nonc1-c1nc2ccccc2n1CC(=O)Nc1cc(Br)cc(Br)c1	6.56
Nc1nonc1-c1nc2ccccc2n1CC(=O)Nc1cc(Cl)cc(Br)c1	37.8
Nc1nonc1-c1nc2ccccc2n1CC(=O)Nc1cc(Cl)cc(Cl)c1	13.6
Cc1cc(NC(=O)Cn2c(-c3nonc3N)nc3ccccc32)cc([N+](=O)[O-])c1	28.8
Nc1nonc1-c1nc2ccccc2n1CC(=O)Nc1cc(Cl)cc(C(F)(F)F)c1	46.2

====

Let's go through some log10(IC50) measurements on Cholinesterase (Homo sapiens, UniProt P06276) together.
Sequence (P06276 whole entry): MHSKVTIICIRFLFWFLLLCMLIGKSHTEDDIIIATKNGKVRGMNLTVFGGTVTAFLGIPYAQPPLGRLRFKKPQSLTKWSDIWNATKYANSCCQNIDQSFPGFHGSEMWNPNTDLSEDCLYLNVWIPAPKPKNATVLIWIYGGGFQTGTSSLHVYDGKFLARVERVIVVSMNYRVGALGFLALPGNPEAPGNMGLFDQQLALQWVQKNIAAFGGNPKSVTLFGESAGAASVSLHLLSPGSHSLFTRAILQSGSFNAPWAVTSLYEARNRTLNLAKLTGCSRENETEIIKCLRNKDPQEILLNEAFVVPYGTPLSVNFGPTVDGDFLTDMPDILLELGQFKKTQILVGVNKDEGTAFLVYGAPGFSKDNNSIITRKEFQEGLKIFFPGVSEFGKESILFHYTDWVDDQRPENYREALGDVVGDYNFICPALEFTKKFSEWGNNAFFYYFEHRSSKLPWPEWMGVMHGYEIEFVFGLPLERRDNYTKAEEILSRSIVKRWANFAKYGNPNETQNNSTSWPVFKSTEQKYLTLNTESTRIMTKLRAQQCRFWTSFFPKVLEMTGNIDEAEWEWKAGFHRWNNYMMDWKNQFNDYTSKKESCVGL
propertyMeasured: log10(IC50) (log10 of the value in nM)

structureSmilesString	log10(IC50)
Nc1nonc1-c1nc2ccccc2n1CC(=O)Nc1cnc2ccccc2c1	1.70
Nc1nonc1-c1nc2ccccc2n1CC(=O)Nc1ccc([N+](=O)[O-])c(Cl)c1	2.87
Nc1nonc1-c1nc2ccccc2n1CC(=O)Nc1ccc([N+](=O)[O-])c(Br)c1	2.86
Nc1nonc1-c1nc2ccccc2n1CC(=O)Nc1cc([N+](=O)[O-])cc([N+](=O)[O-])c1	1.54
Nc1nonc1-c1nc2ccccc2n1CC(=O)Nc1cc(F)cc(F)c1	3.57
Cc1cc(F)cc(NC(=O)Cn2c(-c3nonc3N)nc3ccccc32)c1	2.66
COC(=O)c1cc(NC(=O)Cn2c(-c3nonc3N)nc3ccccc32)cc(C(=O)OC)c1	2.35
Cc1cc(NC(=O)Cn2c(-c3nonc3N)nc3ccccc32)cc([N+](=O)[O-])c1	2.44
Nc1nonc1-c1nc2ccccc2n1CC(=O)Nc1cc(F)cc(C(F)(F)F)c1	2.19
N#Cc1cc(Cl)cc(NC(=O)Cn2c(-c3nonc3N)nc3ccccc32)c1	1.92

====

assay: Metabolic stability in human liver microsomes assessed as parent compound remaining at 1 uM incubated upto 50 mins in presence of NADPH by LC/MS/MS analysis; assay type: ADME, Microsome; settings: read-out: Stability
Some compounds, each annotated with its measured remaining at 50 min, 1 µM.
propertyMeasured: remaining at 50 min, 1 µM (%)

structureSmilesString	valueUnit	valueMeasured
N#Cc1cc(Br)cc(NC(=O)Cn2c(-c3nonc3N)nc3ccccc32)c1	%	89.7
Nc1nonc1-c1nc2ccccc2n1CC(=O)Nc1cc([N+](=O)[O-])cc([N+](=O)[O-])c1	%	92.8

====

target: Cholinesterase (Homo sapiens); assay: Inhibition of human BuChE using butyrylthiocholine iodide as substrate incubated for 10 mins followed by substrate addition by DTNB-reagent based Ellman's colorimetric assay
propertyMeasured: IC50 (nM)

structureSmilesString	propertyMeasured	valueMeasured
Nc1nonc1-c1nc2ccccc2n1CC(=O)Nc1cc(Br)cc(C(F)(F)F)c1	IC50	12.4
Nc1nonc1-c1nc2ccccc2n1CC(=O)Nc1cc(Br)cc(Br)c1	IC50	27.9
Nc1nonc1-c1nc2ccccc2n1CC(=O)Nc1cc(Cl)cc(Cl)c1	IC50	30.4
Nc1nonc1-c1nc2ccccc2n1CC(=O)Nc1cc(Cl)cc(C(F)(F)F)c1	IC50	113
Nc1nonc1-c1nc2ccccc2n1CC(=O)Nc1cc(Cl)cc(Br)c1	IC50	75.7

====

test: Cmax in ICR mouse plasma administered as oral dose by LC/MS/MS analysis; type: ADME; parameters: route po

structureSmilesString	Cmax (ng/mL)
N#Cc1cc(Br)cc(NC(=O)Cn2c(-c3nonc3N)nc3ccccc32)c1	1760

====

assay: AUC (0 to t) in Sprague-Dawley rat at 10 mg/kg, iv measured upto 1440 mins by LC/MS/MS analysis; format: ADME, organism-based; design: time < 1440 min, dose 10 mg/kg, route iv; details: Sprague-Dawley, in vivo

structureSmilesString	AUC(0-t) at 24 h / ng·h/mL
N#Cc1cc(Br)cc(NC(=O)Cn2c(-c3nonc3N)nc3ccccc32)c1	860

====

test: Cytotoxicity against mouse BV-2 cells assessed as survival rate at 100 uM measured after 24 hrs by MTT assay relative to control; assay type: toxicity, cell-based; settings: read-out: Survival
Binary label based on viability at 24 h, 100 µM with cut-off 60%: below gives TRUE, not below gives FALSE.

structureSmilesString	class
Nc1nonc1-c1nc2ccccc2n1CC(=O)Nc1cc(C(F)(F)F)cc(C(F)(F)F)c1	FALSE
Nc1nonc1-c1nc2ccccc2n1CC(=O)Nc1cc(Cl)cc(Cl)c1	TRUE
Nc1nonc1-c1nc2ccccc2n1CC(=O)Nc1cc(Cl)cc(C(F)(F)F)c1	FALSE
Cc1cc(C)cc(NC(=O)Cn2c(-c3nonc3N)nc3ccccc32)c1	FALSE
N#Cc1cc(Cl)cc(NC(=O)Cn2c(-c3nonc3N)nc3ccccc32)c1	FALSE
Cc1cc(Cl)cc(NC(=O)Cn2c(-c3nonc3N)nc3ccccc32)c1	TRUE
Nc1nonc1-c1nc2ccccc2n1CC(=O)Nc1cc(Br)cc(C(F)(F)F)c1	TRUE
Nc1nonc1-c1nc2ccccc2n1CC(=O)Nc1cnc2ccccc2c1	FALSE
Nc1nonc1-c1nc2ccccc2n1CC(=O)Nc1cc(F)cc(Cl)c1	FALSE
